meta.source: ChEMBL document CHEMBL3297729

method: Selectivity ratio of IC50 for human MRC5 cells to IC50 for human MDA-MB-231 cells
Assay type: ADME, cell-based
condition-context: MRC5 cells versus MDA-MB-231 cells, read-out: Ratio IC50

>  <smiles>
COc1cc(/C=C/C(=O)N2CCC=C(Cl)C2=O)cc(OC)c1OC

>  <selectivity ratio>
2

$$$$
